Origin of values: ChEMBL document CHEMBL1201862

system: Malme-3M; test: NCI tumour cell line growth inhibition, 48 h
Activity calls are given as the source filed them. No stated cut-off is given here; in the data, active = GI50 up to about 1.1 µM and inactive = higher.
Select the matching outcome among true (1) = active, false (0) = inactive

Ask: Give the logged outcome of this assay for the following molecule: `COc1ccc(/C(Cl)=C(\c2ccc(OCCN(C)C)cc2)c2ccc(OC(=O)C(C)(C)C)cc2)cc1`
Reply: false (0)

Ask: Give the logged outcome of this assay for the following molecule: COC1OC2COC(c3ccccc3)OC2C(O)C1Br (stereo unspecified)
Reply: false (0)

Ask: Give the logged outcome of this assay for the following molecule: `CC(C)C(=S)N(C)O`
Reply: false (0)

Ask: Give the logged outcome of this assay for the following molecule: `O=c1[nH]c(=O)n(COCCO)cc1-c1ccccc1`
Reply: false (0)

Ask: Give the logged outcome of this assay for the following molecule: `C/C(=N\NC(N)=S)c1sc(-n2nc(-c3ccccc3)cc2-c2ccccc2)nc1C`
Reply: false (0)

Ask: Give the logged outcome of this assay for the following molecule: `Clc1ccc(-c2cn3c(nc4ccccc43)c(/C=C/c3ccco3)n2)cc1`
Reply: false (0)

* * *

tested on: HOP-62; assay: NCI tumour cell line growth inhibition, 48 h
The source made the active and inactive calls. No stated cut-off is given here; in the data, active = GI50 up to about 1.1 µM and inactive = higher.
Recorded metric: GI50

O=C(O)C1C2c3ccccc3C(c3ccccc32)C1C(=O)NCC1CC1 (configuration not stated) | 68.2 µM (inactive)
CN(C)C(=O)Nc1cc2c3c(c1)CCCN3CCC2 | > 10 µM (inactive)
CC(=O)Oc1ccc2cc(-c3ccc(OC(C)=O)c(OC(C)=O)c3)c(=O)oc2c1 | > 100 µM (inactive)

Ask: // lookup GI50 for CC1=CC2CCC1(C)C/C2=C(/C)OC=O (configuration not stated)
Reply: > 100 µM (inactive)

Ask: // lookup GI50 for CC(C)CC1NC(=O)CCC(NC(=O)C(Cc2ccc(O)cc2)NC(=O)OCc2ccccc2)C(=O)NC(Cc2ccccc2)C(=O)NC(Cc2ccccc2)NC1=O (configuration not stated)
Reply: > 100 µM (inactive)

Ask: // lookup GI50 for `C[n+]1ccc2/c(=C\C#N)c3ccccc3n21`
Reply: 30.7 µM (inactive)

Ask: // lookup GI50 for O=C(c1cccnc1)N1N=C(c2ccccc2)CC1(O)c1cc(F)c(Cl)cc1Cl (configuration not stated)
Reply: 16.1 µM (inactive)

* * *

test system: OVCAR-4; experiment: NCI tumour cell line growth inhibition, 48 h
Active and inactive are the calls of the source. Rule as the data show it: active = GI50 up to about 1.1 µM and inactive = higher.
Recorded metric: GI50

Ask: // lookup GI50 for CCS[C@H]1NC(=O)C1[C@H](C)O[Si](C)(C)C(C)(C)C (stereo not given in full)
Reply: > 100 µM (inactive)

Ask: // lookup GI50 for COC(=O)/C(=N/NC(N)=O)C(C(=O)OC)C(=O)C(=O)Nc1ccc(Cl)cc1 (stereo not given)
Reply: > 100 µM (inactive)

* * *

tested on: RXF 393; assay: NCI tumour cell line growth inhibition, 48 h
The source made the active and inactive calls. No stated cut-off is given here; in the data, active = GI50 up to about 1.1 µM and inactive = higher.
Select the matching outcome among yes (1) for active, no (0) for inactive

Worked set:
COc1ccc(-c2c(C#N)c(-c3ccc(C)cc3)n(NS(=O)(=O)c3ccccc3)c(=O)c2C#N)cc1 | no (0)
CNC(=O)NCCN1CC2CCC(CC2)C1 | no (0)
CN(C)/C=N\c1ccn(CCO)c(=O)n1 | no (0)
CC1(C(=O)O)CCC(C(=O)O)C(C)(C)O1 (centres undefined) | no (0)
Cc1nc2cc(C(F)(F)F)ccc2[nH]c1=O | no (0)

Ask: Give the logged outcome of this assay for the following molecule: `COc1cc(CNc2nc3cc(C(F)(F)F)ccc3nc2-c2ccccc2)cc(OC)c1OC`
Reply: no (0)

Ask: Give the logged outcome of this assay for the following molecule: `CNC(=O)c1cc2nc3ccccc3c(=O)n2c2ccccc12`
Reply: no (0)

Ask: Give the logged outcome of this assay for the following molecule: `CCCn1cnc2c(/N=N/O)ncnc21`
Reply: no (0)

Ask: Give the logged outcome of this assay for the following molecule: O=C1C(CN2CCCC2)CCC1CN1CCCC1 (centres undefined)
Reply: no (0)

Ask: Give the logged outcome of this assay for the following molecule: COC1OC2COC1(OCc1ccccc1)C1OC(C)(C)OC21 (centres undefined)
Reply: no (0)

Ask: Give the logged outcome of this assay for the following molecule: COc1cc(C(C[N+](=O)[O-])SC(C)=O)ccc1OCc1ccccc1 (centres undefined)
Reply: no (0)

Ask: Give the logged outcome of this assay for the following molecule: `CC(C)(C)NC(NC(C)(C)C)=C(/C=C(/Cl)[N+](=O)[O-])[N+](=O)[O-]`
Reply: no (0)

Ask: Give the logged outcome of this assay for the following molecule: `COC(=O)/C=C/CCC#Cc1ccccc1C#CCC/C=C/C(=O)OC`
Reply: no (0)

Ask: Give the logged outcome of this assay for the following molecule: `CC1(C)C(CBr)=[N+]([O-])C(C)(C)N1O`
Reply: no (0)
